Origin of measurements: ChEMBL document CHEMBL1150446

Catalogue of half-life readings, one per entry.
- procedure_text: In vitro biological half-life was measured in human plasma
- Assay type: ADME
// units = min; emit number, no label

INPUT: Can you share its half-life? I mean this compound: "COc1ccc(S(=O)(=O)Nc2ccc3nc(N[C@H](C)c4ccccc4)oc(=O)c3c2C)cc1"
OUTPUT: 50

INPUT: // same read-out, input: "Cc1cccc2nc(N[C@H](C)c3ccccc3)oc(=O)c12"
OUTPUT: 67

INPUT: Please do the same for "Cc1cccc2nc(N[C@H](C)c3ccc(Br)cc3)oc(=O)c12" as well.
OUTPUT: 50
